Sourced from PubChem BioAssay (Tox21)

# protocol: A CellTox Green Cytotoxicity Assay to monitor cytotoxicity in HepG2 cells - 32 hour (AID 1224883); note: nearly all actives have a fitted effect of over 50% in size
# measurement setup: CellTox Green fluorescence; series mostly up to 76.8 µM
Results filed as inconclusive are left out. Active and inactive are the calls of the source. Calls come from the whole dose curve; as a rule, active = well fitted activation curve with a large enough effect in the repeat runs; inconclusive = weak or mixed curves; inactive = flat fitted curve, though single readings scatter.
measure: outcome

Sample answers from the record:
Cc1ccccc1N ... inactive
C=CCN=C=S ... inactive
CC(=O)/C=C/c1ccccc1 ... inactive
CNCC(O)c1ccc(O)cc1 (stereo not drawn) ... inactive
N#Cc1ccccn1 ... inactive

Quick check: outcome of FC(F)(F)c1ccc(Cl)cc1 ?
inactive

// returns reported outcome for input O=[N+]([O-])c1ccc(Cl)c(Cl)c1
inactive

Look up outcome: C[C@]12CC[C@H](O)CC1=CC[C@@H]1[C@@H]2CC[C@]2(C)C(=O)CC[C@@H]12
inactive

// returns reported outcome for input CN1C(=O)CCS(=O)(=O)C1c1ccc(Cl)cc1 (stereo not drawn)
inactive

Report outcome for CC[N+](=O)[O-] please.
inactive
